Target: Human Cav3.1 calcium channel (Homo sapiens)
Construct: expressed in transfected cells; host or cells: HEK-293 natClytin/TASK1+Cav3.1 cell line
Assay: Human Cav3.1 calcium channel patch clamp assay (SyncroPatch 384PE; single point and IC50, voltage dependent block)
Type: cell-based
Conditions: Testing Conc 1.25; HEK-293 natClytin/TASK1+Cav3.1 cell line, patch clamp
Returns: string. Value is label 1 if measured % Inhibition (Single Point Data) is below 90%, and label 0 if it is greater than or equal to it.

| compound | target_system | discrete_label |
| --- | --- | --- |
| Fc1cc(Cl)c2nc(CN3CCN(CC(F)(F)C4CCCC4)CC3)[nH]c2c1 | Human Cav3.1 calcium channel (Homo sapiens) | label 1 |
| OC1(CCN2C3CCC2CN(Cc2nc4c(Cl)cc(F)cc4[nH]2)C3)CCCC1 | Human Cav3.1 calcium channel (Homo sapiens) | label 0 |
| Fc1cc(Cl)c2nc(CN3CCN(CC(F)(F)C4CCCCC4)CC3)[nH]c2c1 | Human Cav3.1 calcium channel (Homo sapiens) | label 1 |
| CC(C)(C)NC(=O)CN1CC2CCC1CCN2Cc1nc2c(Cl)cc(F)cc2[nH]1 (centres unmarked) | Human Cav3.1 calcium channel (Homo sapiens) | label 1 |
| Cc1cccc2[nH]c(C(C)N3CC4CCC(C3)N4CC(=O)NC(C)(C)C)nc12 (centres unmarked) | Human Cav3.1 calcium channel (Homo sapiens) | label 1 |
| Fc1cc(Cl)c2nc(CN3CC4CC(C3)N4CC3(F)CCC(F)(F)CC3)[nH]c2c1 | Human Cav3.1 calcium channel (Homo sapiens) | label 1 |
| O=C(CN1CC2CC(C1)N2CC1(O)CCC(F)(F)CC1)NC12CC3CC(CC(C3)C1)C2 | Human Cav3.1 calcium channel (Homo sapiens) | label 1 |
| COc1cc(NC(=O)CN2CC3CC(C2)N3CC(=O)NC(C)(C)C)ccc1F | Human Cav3.1 calcium channel (Homo sapiens) | label 1 |
| Fc1cc(Cl)c2nc(CN3CC4CC(C3)N4CCC3(F)CCCC3)[nH]c2c1 | Human Cav3.1 calcium channel (Homo sapiens) | label 0 |
| CC(C)(C)NC(=O)CN1C[C@@H]2C[C@H]1CN2CCNC(=O)C12CC3CC(CC(C3)C1)C2 | Human Cav3.1 calcium channel (Homo sapiens) | label 1 |
| CC(C)(C)C(O)CN1C[C@@H]2C[C@H]1CN2CC(=O)NC12CC3CC(CC(C3)C1)C2 (some centres unmarked) | Human Cav3.1 calcium channel (Homo sapiens) | label 1 |
| CC(C)(C)NC(=O)CN1C2CC1CN(Cc1nc3c(Cl)cc(F)cc3[nH]1)C2 | Human Cav3.1 calcium channel (Homo sapiens) | label 0 |
| CC(C)(C)NC(=O)CN1C[C@@H]2C[C@H]1CN2CC(=O)NC1CCCC(OC(F)F)C1 (some centres unmarked) | Human Cav3.1 calcium channel (Homo sapiens) | label 1 |
| Cc1cc(F)cc2[nH]c(CN3CC4CCC(C3)N4CC(=O)NC(C)(C)C)nc12 | Human Cav3.1 calcium channel (Homo sapiens) | label 0 |
| CC(C)(CCN1C2CC1CN(Cc1nc3c(Cl)cc(F)cc3[nH]1)C2)C(F)(F)F | Human Cav3.1 calcium channel (Homo sapiens) | label 0 |

----------
Target: Human Cav3.1 calcium channel (Homo sapiens)
Construct: expressed in transfected cells; host or cells: HEK-293 natClytin/TASK1+Cav3.1 cell line
Assay: Human Cav3.1 calcium channel patch clamp assay (SyncroPatch 384PE; single point and IC50, voltage dependent block)
Assay type: cell-based
Details: Testing Conc 1; HEK-293 natClytin/TASK1+Cav3.1 cell line, patch clamp
Method: Certain compounds (as indicated) were tested for Human Cav3.1 calcium channel activity via a patch clamp assay as disclosed herein. Pulse generation and data collection were performed with PatchController384 V1.3.0 and DataController384 V1.2.1 (Nanion Technologies). […] Current was recorded in whole cell configuration from a population of cells. […] Currents were recorded at room temperature. […]
# % Inhibition (Single Point Data) values compiled below
quantity: % Inhibition (Single Point Data) (%)

| compound | quantity | unit_of_measurement | endpoint_value |
| --- | --- | --- | --- |
| Cc1cc(CNC(=O)CN2CCN(CC(=O)NC(C)(C)C)CC2)nn1-c1ccccc1 [Compound 2] | % Inhibition (Single Point Data) | % | 40.057 |
| CC(C)(C)NC(=O)CN1CCN(Cc2cnc(-c3cc(F)cc(Cl)c3)[nH]2)CC1 [Compound 31] | % Inhibition (Single Point Data) | % | 75.738 |
| O=C(CN1CCN(CCC2CCOCC2)CC1=O)Nc1cc(F)cc(Cl)c1 [Compound 38] | % Inhibition (Single Point Data) | % | 30.86 |
| CC(C)(C)NC(=O)CN1CCCN(CC(=O)NC23CC4CC(CC(C4)C2)C3)CC1 [Compound 32] | % Inhibition (Single Point Data) | % | 56.921 |

----------
# pIC50 values compiled below
Biological target: Human Cav3.1 calcium channel (Homo sapiens)
Construct: expressed in transfected cells; host or cells: HEK-293 natClytin/TASK1+Cav3.1 cell line
Assay: Human Cav3.1 calcium channel patch clamp assay (SyncroPatch 384PE; single point and IC50, voltage dependent block)
Type: cell-based
Settings: voltage dependent block (VDB); HEK-293 natClytin/TASK1+Cav3.1 cell line; read-out: Cav3.1 IC50
pIC50: −log10 of the molar value.

| compound | pIC50 |
| --- | --- |
| COc1cccc(NC(=O)CN2CC3CC2CN3CCNC(=O)C2(C(F)(F)F)CCC2)c1 (centres unmarked) | 6.27 |
| CC(C)(C)NC(=O)CN1C2CC(CNC(=O)c3cc(F)cc(Cl)c3)CC1C2 (centres unmarked) | 6.73 |
| Cc1cc(Cl)cc(NC(=O)CN2C[C@@H]3C[C@H]2CN3CC(=O)NC(C)(C)C)c1 | 6.85 |
| CC(C)(NC(=O)CN1C2CC1CN(CC(=O)Nc1cc(F)cc(Cl)c1)C2)C(F)(F)F | 6.65 |
| COc1cc(NC(=O)CN2C[C@@H]3C[C@H]2CN3CC(=O)NC(C)(C)C)cc(F)c1F | 7.03 |

----------
Biological target: Human Cav3.1 calcium channel (Homo sapiens)
Construct: expressed in transfected cells; host or cells: HEK-293 natClytin/TASK1+Cav3.1 cell line
Test: Human Cav3.1 calcium channel patch clamp assay (SyncroPatch 384PE; single point and IC50, voltage dependent block)
Type: cell-based
Settings: Testing Conc 1.25; HEK-293 natClytin/TASK1+Cav3.1 cell line, patch clamp
quantity: % Inhibition (Single Point Data) (%)

| compound | quantity | endpoint_value |
| --- | --- | --- |
| Fc1cc(Cl)c2nc(CN3CC4CC(C3)N4CCOC3CCOCC3)[nH]c2c1 [Compound 146] | % Inhibition (Single Point Data) | 41.657 |
| CC1(S(=O)(=O)NCCN2C3CC2CN(Cc2nc4c(Cl)cc(F)cc4[nH]2)C3)CC1 [Compound 142] | % Inhibition (Single Point Data) | 84.115 |
| O=C(NCCN1C2CC1CN(Cc1nc3c(Cl)cc(F)cc3[nH]1)C2)C1(C(F)(F)F)CC1 [Compound 135] | % Inhibition (Single Point Data) | 101.33 |
| CC(C)(C)NC(=O)CN1CC2CC1CN2CC(=O)Nc1cc(F)cc(Cl)c1 (centres unmarked) [Compound 130] | % Inhibition (Single Point Data) | 92.618 |
| CC(C)(C)NC(=O)CN1C[C@@H]2CC[C@H]1CN2CC(=O)Nc1cc(F)cc(Cl)c1 [Compound 270] | % Inhibition (Single Point Data) | 95.978 |
| COc1ccc(F)cc1NC(=O)CN1CC2CC(C1)N2CC(=O)NC(C)(C)C [Compound 218] | % Inhibition (Single Point Data) | 36.544 |
| CC(C)(C)NC(=O)CN1C2CC1CN(CC(=O)Nc1cc(F)ccc1Cl)C2 [Compound 213] | % Inhibition (Single Point Data) | 27.718 |
| O=C(CN1CC2CC(C1)N2CC(=O)NC1(C(F)(F)F)CC1)Nc1ccc(F)c(OC(F)F)c1 [Compound 245] | % Inhibition (Single Point Data) | 96.987 |

----------
# IC50 values compiled below
Biological target: Human Cav3.1 calcium channel (Homo sapiens, UniProt O43497)
Construct: expressed in transfected cells; host or cells: HEK-293 natClytin/TASK1+Cav3.1 cell line
Sequence (O43497 whole entry): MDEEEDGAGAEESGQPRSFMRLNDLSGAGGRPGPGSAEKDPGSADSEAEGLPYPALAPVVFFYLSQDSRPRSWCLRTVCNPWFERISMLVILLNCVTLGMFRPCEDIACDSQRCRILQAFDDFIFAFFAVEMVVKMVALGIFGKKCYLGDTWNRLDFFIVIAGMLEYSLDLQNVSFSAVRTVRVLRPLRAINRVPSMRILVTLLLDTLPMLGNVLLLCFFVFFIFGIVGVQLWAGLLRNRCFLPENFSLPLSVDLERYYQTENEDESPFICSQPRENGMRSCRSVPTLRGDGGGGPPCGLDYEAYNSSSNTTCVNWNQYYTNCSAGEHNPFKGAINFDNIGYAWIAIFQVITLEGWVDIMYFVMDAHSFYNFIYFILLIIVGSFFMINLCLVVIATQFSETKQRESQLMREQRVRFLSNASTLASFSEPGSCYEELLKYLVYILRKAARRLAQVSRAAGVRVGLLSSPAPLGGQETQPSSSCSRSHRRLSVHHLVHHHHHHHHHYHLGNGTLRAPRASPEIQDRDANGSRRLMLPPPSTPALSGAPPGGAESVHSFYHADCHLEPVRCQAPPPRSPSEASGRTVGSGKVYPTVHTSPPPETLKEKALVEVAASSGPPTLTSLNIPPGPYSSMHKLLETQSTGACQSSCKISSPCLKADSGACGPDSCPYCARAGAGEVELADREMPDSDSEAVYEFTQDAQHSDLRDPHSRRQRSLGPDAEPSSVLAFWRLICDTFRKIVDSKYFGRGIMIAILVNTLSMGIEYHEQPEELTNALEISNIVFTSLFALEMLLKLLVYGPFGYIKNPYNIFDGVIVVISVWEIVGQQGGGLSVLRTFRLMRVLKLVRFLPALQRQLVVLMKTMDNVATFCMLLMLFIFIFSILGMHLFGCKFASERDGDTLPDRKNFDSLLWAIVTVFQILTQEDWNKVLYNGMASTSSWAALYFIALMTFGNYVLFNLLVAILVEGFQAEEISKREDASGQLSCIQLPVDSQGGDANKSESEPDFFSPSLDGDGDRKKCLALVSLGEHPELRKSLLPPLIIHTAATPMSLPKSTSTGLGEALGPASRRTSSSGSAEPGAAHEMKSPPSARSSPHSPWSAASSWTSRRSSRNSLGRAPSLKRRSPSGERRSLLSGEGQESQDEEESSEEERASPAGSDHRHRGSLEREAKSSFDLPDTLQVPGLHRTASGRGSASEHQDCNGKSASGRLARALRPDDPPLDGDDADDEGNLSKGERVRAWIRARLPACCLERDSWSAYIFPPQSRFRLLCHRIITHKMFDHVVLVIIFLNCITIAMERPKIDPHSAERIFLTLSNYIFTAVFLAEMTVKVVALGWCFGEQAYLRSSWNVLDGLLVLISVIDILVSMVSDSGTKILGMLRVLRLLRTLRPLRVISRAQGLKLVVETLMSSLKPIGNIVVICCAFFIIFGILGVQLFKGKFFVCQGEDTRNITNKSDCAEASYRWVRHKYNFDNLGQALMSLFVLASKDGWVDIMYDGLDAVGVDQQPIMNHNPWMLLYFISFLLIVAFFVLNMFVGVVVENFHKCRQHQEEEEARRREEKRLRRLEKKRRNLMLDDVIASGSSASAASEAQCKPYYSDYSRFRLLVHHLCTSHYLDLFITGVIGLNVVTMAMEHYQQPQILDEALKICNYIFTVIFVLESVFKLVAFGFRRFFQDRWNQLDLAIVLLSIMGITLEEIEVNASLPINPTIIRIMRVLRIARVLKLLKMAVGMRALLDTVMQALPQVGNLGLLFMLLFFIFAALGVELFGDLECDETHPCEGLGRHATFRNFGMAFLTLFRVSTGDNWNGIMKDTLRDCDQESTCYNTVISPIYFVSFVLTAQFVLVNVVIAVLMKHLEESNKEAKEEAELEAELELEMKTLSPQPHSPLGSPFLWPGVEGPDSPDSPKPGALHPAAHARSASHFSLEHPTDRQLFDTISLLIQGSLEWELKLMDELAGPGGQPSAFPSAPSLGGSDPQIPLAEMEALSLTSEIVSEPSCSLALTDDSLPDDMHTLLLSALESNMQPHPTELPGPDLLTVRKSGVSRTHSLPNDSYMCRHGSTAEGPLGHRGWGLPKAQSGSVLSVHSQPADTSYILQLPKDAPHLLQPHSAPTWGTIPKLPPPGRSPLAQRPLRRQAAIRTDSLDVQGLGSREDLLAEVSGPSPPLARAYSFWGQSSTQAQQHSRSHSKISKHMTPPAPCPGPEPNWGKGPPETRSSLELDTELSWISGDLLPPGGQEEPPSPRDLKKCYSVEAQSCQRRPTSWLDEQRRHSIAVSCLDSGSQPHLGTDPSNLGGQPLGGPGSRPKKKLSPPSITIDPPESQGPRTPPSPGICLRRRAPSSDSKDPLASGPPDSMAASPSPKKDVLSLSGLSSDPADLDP
Experiment: Human Cav3.1 calcium channel patch clamp assay (SyncroPatch 384PE; single point and IC50, voltage dependent block)
Format: cell-based
Conditions: voltage dependent block (VDB); HEK-293 natClytin/TASK1+Cav3.1 cell line; read-out: Cav3.1 IC50

| compound | unit_of_measurement | relation_sign | IC50 |
| --- | --- | --- | --- |
| CC(C)(NC(=O)CN1C2CC1CN(CC(=O)Nc1cc(F)cc(OC(F)F)c1)C2)C(F)(F)F | nM | = | 159 |
| CC(C)(C)NC(=O)CN1C[C@@H]2CC[C@H]1CN2CC(=O)Nc1ccc(F)c(OC(F)F)c1 | nM | = | 455 |
| O=C(CN1C[C@@H]2C[C@H]1CN2CC1(F)CCC(F)(F)CC1)NC12CC3CC(CC(C3)C1)C2 | nM | = | 4020 |
| CC1(C)CCC(=O)N1CCN1C2CC1CN(Cc1nc3c(Cl)cc(F)cc3[nH]1)C2 | nM | = | 652 |
| CC(C)(C)NC(=O)CN1C2CC1CN(CC(=O)Nc1cc(F)c(F)c(Cl)c1)C2 | nM | < | 78.2 |
| O=C(CN1C[C@@H]2C[C@H]1CN2CC(=O)N1CCC(F)(F)CC1)NC12CC3CC(CC(C3)C1)C2 | nM | = | 370 |
| CC(C)(C)NC(=O)CN1C2CC1CN(CC(=O)Nc1cc(F)c(F)c(OC(F)F)c1)C2 | nM | = | 76 |
| COc1cc(NC(=O)CN2CC3CC(C2)N3CC(=O)NC(C)(C)C)ccc1F | nM | = | 530 |
| Fc1cc(Cl)c2nc(CN3CCN(Cc4cc5ccccc5[nH]4)CC3)[nH]c2c1 | nM | = | 395 |
| OC1(CN2CCN(Cc3nc4c(Cl)ccc(F)c4[nH]3)CC2)CCC(F)(F)CC1 | nM | = | 250 |
| Fc1cc(Cl)c2nc(CN3CC4CC(C3)N4CCOC3CCOCC3)[nH]c2c1 | nM | = | 1280 |
| Cc1cc(Cl)cc(NC(=O)CN2C[C@@H]3C[C@H]2CN3CC(=O)NC2(C(F)(F)F)CC2)c1 | nM | = | 289 |
| CC(C)(C)NC(=O)CN1C2CC1CN(CC(=O)NC13CC4CC(CC(F)(C4)C1)C3)C2 | nM | = | 592 |
| Fc1cc(Cl)c2nc(CN3CCN(CCc4ccccc4)CC3)[nH]c2c1 | nM | = | 394 |
| CC(C)(C)NC(=O)CN1CC2CC1CN2CC(=O)Nc1cc(Cl)ccc1F (stereo not shown) | nM | = | 1340 |
| CC(C)(C)NC(=O)CN1CC2COCC(C1)N2Cc1nc2c(Cl)cc(F)cc2[nH]1 | nM | = | 386 |
